system.tested: IGF-IR on human tumour cells (H292, MCF-7, RH41) (human, UniProt P08069 31-1367)
method.description: cell-based or functional assay
The binders listed here are annotated with their pIGFR IC50.
Express it in nM; write the number only.

{"binder": "I1-GS10-E5(S62C) pegylated (designed binder, PEG on Cys at position 62 of E5 (position of SEQ ID NO: 1), also called I1-GS10-E5(S62C)(6)) MGVSDVPRDLEVVAATPTSLLISWSARLKVARYYRITYGETGGNSPVQEFTVPKNVYTATISGLKPGVDYTITVYAVTRFRDYQPISINYRTEIEKGSGSGSGSGSGSGSGSGSGSVSDVPRDLEVVAATPTSLLISWWAPVDRYQYYRITYGETGGNSPVQEFTVPRDVYTATICGLKPGVDYTITVYAVTDYKPHADGPHTYHESPISINYRTEHHHHHH", "pIGFR IC50 (nM)": 2.2}

The reported pIGFR IC50 of the binder I1-GS10-E5-GSGC pegylated (designed binder, PEG on the Cys of the GSGC tail of E5, alternative clone of I1-GS10-E5 pegylated; also called I1-GS10-E5-GSGC(4)) MGVSDVPRDLEVVAATPTSLLISWSARLKVARYYRITYGETGGNSPVQEFTVPKNVYTATISGLKPGVDYTITVYAVTRFRDYQPISINYRTEIEKGSGSGSGSGSGSGSGSGSGSVSDVPRDLEVVAATPTSLLISWWAPVDRYQYYRITYGETGGNSPVQEFTVPRDVYTATISGLKPGVDYTITVYAVTDYKPHADGPHTYHESPISINYRTEGSGCHHHHHH was 1.2

These measurements were taken from patent US20180037631A1.
